Molecular target: Lck (Homo sapiens)
Construct: Kinases are expressed as either kinase domains or full length constructs; made in house
Sequence (P06239 whole entry, species assumed, the tested form may be a part): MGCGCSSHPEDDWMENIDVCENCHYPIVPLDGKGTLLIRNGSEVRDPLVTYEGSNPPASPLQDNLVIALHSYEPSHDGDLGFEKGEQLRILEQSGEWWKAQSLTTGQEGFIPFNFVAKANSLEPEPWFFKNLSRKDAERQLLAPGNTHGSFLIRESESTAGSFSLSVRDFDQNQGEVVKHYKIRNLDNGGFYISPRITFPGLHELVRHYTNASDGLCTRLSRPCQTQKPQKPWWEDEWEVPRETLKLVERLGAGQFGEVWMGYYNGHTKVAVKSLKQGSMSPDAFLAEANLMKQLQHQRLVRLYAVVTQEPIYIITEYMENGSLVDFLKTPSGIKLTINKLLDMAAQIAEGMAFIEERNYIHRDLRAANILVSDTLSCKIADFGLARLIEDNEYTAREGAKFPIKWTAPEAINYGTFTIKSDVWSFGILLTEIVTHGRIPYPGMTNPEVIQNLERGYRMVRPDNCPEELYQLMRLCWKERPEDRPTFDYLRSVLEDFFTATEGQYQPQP
Assay: Kinase inhibition assay (33P transfer), Lck
Assay type: biochemical
Conditions: read-out: Lck-1
pIC50: −log10 of the molar value.
MEASURED_QUANTITY: pIC50

MOLECULE	pIC50
COc1cc(Nc2ncnc(-n3c(NCc4ccc([N+](=O)[O-])cc4)nc4ccccc43)n2)cc(OC)c1OC [Compound 952]	5.18 to 5.34

# map each molecule to its pIC50
1. COc1cc(Nc2ncnc(N(C)c3cccc4ccccc34)n2)cc(OC)c1OC [Compound 607]
2. COc1cc(Nc2ncnc(Nc3nc4ccccc4s3)n2)cc(OC)c1OC [Compound 469]
3. COc1cc(Nc2ncnc(N3CCCc4ccc(C(F)(F)F)cc43)n2)cc(OC)c1OC [Compound 518]

(A)
1. > 6.02
2. < 4.96
3. < 5.01

Hey, can you go through the list below and give me pIC50 for every item?
1. COC(=O)Cc1cccc(Nc2ncnc(-n3c(NCc4ccc(OC)cc4)nc4ccccc43)n2)c1 [Compound 548]
2. Cc1ccc2c(c1)CCCN2c1ncnc(NCC2CCCO2)n1 (centres unmarked) [Compound 759]

(A)
< 5.04
< 4.86

Provide pIC50 values for the following items, in order.
1. COc1cc(Nc2ncnc(Nc3ccc4nn(C)cc4c3)n2)cc(OC)c1OC [Compound 556]
2. COc1cc(Nc2ncnc(-n3c(NC4CCCc5ccccc54)nc4ccccc43)n2)cc(OC)c1OC (centres unmarked) [Compound 587]
3. COc1cc(Nc2ncnc(-c3cccc4ccccc34)n2)cc(OC)c1OC [Compound 611]
4. COc1cc(OC)nc(Nc2ncnc(-n3c(=O)[nH]c4ccccc43)n2)n1 [Compound 491]
5. Cc1ccc2c(c1)CCCN2c1ncnc(Nc2cccc(CO)c2)n1 [Compound 770]
6. COc1cc(Nc2ncnc(Nc3ccc(NC(=O)O[C@@H]4CCOC4)cc3)n2)cc(OC)c1OC [Compound 693]
7. COc1cc(Nc2ncnc(-n3c(NCCc4ccncc4)nc4ccccc43)n2)cc(OC)c1OC [Compound 948]

(A)
> 6.01
5.34 to 6.12
5.21 to 5.99
< 4.91
> 5.94
5.30 to 6.08
5.15 to 5.32

====

# IC50 measurements, system: ErbB4 (Homo sapiens)
# Sequence (Q15303 26-1308, species assumed): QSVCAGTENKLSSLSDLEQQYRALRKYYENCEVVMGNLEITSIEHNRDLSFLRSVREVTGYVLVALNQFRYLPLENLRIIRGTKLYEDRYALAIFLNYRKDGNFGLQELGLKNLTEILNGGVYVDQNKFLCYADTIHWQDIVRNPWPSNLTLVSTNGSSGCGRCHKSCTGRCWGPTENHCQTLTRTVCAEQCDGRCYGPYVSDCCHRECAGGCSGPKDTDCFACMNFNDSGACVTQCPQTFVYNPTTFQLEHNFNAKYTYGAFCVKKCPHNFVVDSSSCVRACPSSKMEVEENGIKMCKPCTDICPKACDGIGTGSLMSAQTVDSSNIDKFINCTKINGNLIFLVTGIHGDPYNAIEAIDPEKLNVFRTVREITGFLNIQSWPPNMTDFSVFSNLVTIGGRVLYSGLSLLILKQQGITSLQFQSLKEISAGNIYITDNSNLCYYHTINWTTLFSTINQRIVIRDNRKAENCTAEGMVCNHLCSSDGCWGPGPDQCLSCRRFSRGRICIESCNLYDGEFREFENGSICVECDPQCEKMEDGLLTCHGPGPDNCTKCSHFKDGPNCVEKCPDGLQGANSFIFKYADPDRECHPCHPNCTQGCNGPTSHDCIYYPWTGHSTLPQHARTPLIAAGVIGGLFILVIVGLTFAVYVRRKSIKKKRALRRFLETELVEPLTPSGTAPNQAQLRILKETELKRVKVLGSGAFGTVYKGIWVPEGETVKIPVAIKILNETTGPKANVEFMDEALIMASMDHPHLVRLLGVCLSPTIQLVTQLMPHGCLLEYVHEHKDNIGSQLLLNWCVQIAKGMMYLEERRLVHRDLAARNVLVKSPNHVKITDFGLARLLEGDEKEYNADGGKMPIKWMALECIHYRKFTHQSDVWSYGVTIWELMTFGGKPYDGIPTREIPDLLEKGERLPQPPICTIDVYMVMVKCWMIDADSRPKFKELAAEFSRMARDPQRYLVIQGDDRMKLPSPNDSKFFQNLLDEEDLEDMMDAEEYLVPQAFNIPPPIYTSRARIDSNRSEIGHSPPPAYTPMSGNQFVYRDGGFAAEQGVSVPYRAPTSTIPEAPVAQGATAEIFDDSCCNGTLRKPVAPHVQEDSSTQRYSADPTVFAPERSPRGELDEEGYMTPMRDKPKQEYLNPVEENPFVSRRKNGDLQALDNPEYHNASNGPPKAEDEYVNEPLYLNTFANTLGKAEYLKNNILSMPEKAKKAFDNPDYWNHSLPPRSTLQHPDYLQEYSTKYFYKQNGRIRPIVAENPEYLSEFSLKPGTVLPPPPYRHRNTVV

Count: 6. Required value per item: IC50.
1. COc1cc(Nc2ncnc(-c3cccnc3NCc3ccc(F)cc3)n2)cc(OC)c1OC [Compound 1088]
2. COc1cc(Nc2ncnc(Nc3cc(-c4ccccc4)nn3C)n2)cc(OC)c1OC [Compound 394]
3. COc1cc(Nc2ncnc(-n3c(Nc4cccc(C)c4)nc4ccccc43)n2)cc(OC)c1OC [Compound 386]
4. COc1ccc(Nc2ccc(Nc3ncnc(Nc4cc(OC)c(OC)c(OC)c4)n3)cc2)cc1 [Compound 922]
5. COc1cc(Nc2ncnc(Nc3cc(C)c(O)cc3C)n2)cc(OC)c1OC [Compound 94]
6. COc1cc(Nc2ncnc(-n3c(NC(C)C)nc4ccccc43)n2)cc(OC)c1OC [Compound 403]

(A)
1. > 9.73 µM
2. > 10.4 µM
3. > 9.31 µM
4. < 0.843 µM
5. 1.01 to 6.04 µM
6. > 10.3 µM

Provide the reported IC50 of each entry below, same order.
1. COc1cc(Nc2ncnc(Nc3nc4ccccc4n3C)n2)cc(OC)c1OC [Compound 938]
2. COc1cc(Nc2ncnc(-n3c(NCc4cccc(Br)c4)nc4ccccc43)n2)cc(OC)c1OC [Compound 946]

(A)
["5.89 to 8.59 µM", "> 8 µM"]

====

Molecular target: Zap-70 (Homo sapiens, UniProt P43403)
Construct: Kinases are expressed as either kinase domains or full length constructs; made in house
Sequence (P43403 whole entry, species assumed, the tested form may be a part): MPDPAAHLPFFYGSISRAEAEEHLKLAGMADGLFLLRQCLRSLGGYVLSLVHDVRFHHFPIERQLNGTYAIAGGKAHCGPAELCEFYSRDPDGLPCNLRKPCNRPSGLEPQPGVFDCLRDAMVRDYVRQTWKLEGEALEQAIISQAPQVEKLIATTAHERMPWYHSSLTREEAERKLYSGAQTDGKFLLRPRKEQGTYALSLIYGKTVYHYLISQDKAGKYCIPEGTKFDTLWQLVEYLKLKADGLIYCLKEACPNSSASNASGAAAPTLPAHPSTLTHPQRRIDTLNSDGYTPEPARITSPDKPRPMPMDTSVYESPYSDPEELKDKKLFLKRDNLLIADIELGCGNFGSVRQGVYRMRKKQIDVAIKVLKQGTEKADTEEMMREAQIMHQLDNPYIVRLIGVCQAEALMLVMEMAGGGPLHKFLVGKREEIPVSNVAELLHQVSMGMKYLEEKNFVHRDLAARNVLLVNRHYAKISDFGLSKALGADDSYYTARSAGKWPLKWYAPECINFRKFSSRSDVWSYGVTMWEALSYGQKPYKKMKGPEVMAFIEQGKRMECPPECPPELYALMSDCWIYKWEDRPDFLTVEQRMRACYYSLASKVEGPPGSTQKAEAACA
Test: Kinase inhibition assay (33P transfer), Zap-70
Type: biochemical
Settings: Table 3; read-out: Zap-1
pIC50: −log10 of the molar value.
MEASURED_QUANTITY: pIC50

Known results for molecules:
COc1cc(Nc2ncnc(-n3c(=O)oc4ccccc43)n2)cc(OC)c1OC < 4.94
COc1cccc(Nc2ncnc(Nc3ccc(OCc4ccccc4)cc3)n2)c1 < 4.95
COC(=O)c1cccc(Nc2ncnc(Nc3cc(-c4ccco4)n[nH]3)n2)c1 < 4.92
CCOc1ccc(Nc2ncnc(-n3c(N)nc4ccccc43)n2)cc1OCC 5.21 to 5.99

Provide pIC50 values for the following items, in order.
1. COc1cc(Nc2ncnc(-n3c(Nc4ccc(C#N)cc4)nc4ccccc43)n2)cc(OC)c1OC
2. CCOC(=O)Cc1ccc(Nc2ncnc(-c3ccccc3)n2)cc1
3. COc1cc(Nc2ncnc(-n3cc(C)c4ccccc43)n2)cc(OC)c1OC
4. COC(=O)c1cc(Nc2ncnc(Nc3cc(-c4ccco4)n[nH]3)n2)cc(C(=O)OC)c1
5. Fc1ccc(Nc2ncnc(-n3cccc3)n2)cc1
6. Clc1cccc(Nc2ncnc(-n3cccc3)n2)c1
7. Nc1ncnc(Nc2cccc(Cl)c2)n1
8. OCCCNc1ncnc(-c2ccccc2)n1

(A)
1: < 5.04; 2: < 4.87; 3: 4.94 to 5.05; 4: < 4.99; 5: < 4.75; 6: < 4.78; 7: < 4.69; 8: < 4.71

Each of the following entries comes with a recorded value; kindly state pIC50 for each.
1. Cc1cccc(Nc2ncnc(Nc3ccc4[nH]ncc4c3)n2)c1
2. COc1ccc(Nc2ncnc(N(CC(=O)O)c3ccc4c(c3)OCO4)n2)cc1OC

(A)
1: 4.85 to 4.96; 2: 4.98 to 5.08

Dear reader, for each entry below, please note its pIC50.
1. COc1cc(Nc2ncnc(Nc3cc(OC)c(OC)c(OC)c3)n2)cc(OC)n1
2. COc1cc(Nc2ncnc(-n3c(Nc4ccc5[nH]ccc5c4)nc4ccccc43)n2)cc(OC)c1OC

(A)
1: < 4.96; 2: < 5.05

// batch mode: one pIC50 value per listed entry
1. c1coc(-c2cc(Nc3ncnc(Nc4ccc(N5CCOCC5)cc4)n3)[nH]n2)c1
2. CC(C)(C)OC(=O)Nc1ccc(Nc2ncnc(-c3ccccc3)n2)cc1

(A)
["< 4.95", "5.02 to 5.18"]

====

Record type: IC50 measurement. Applies to: Hck-1 (Homo sapiens)

CC(=O)NCc1ccc(Nc2ncnc(Nc3cc(-c4ccco4)n[nH]3)n2)cc1 > 11.5 µM

For each of the molecules below, state IC50.
1. COc1ccc(Nc2ncnc(-n3c(N)nc4ccccc43)n2)cc1OC
2. COc1cc(Nc2ncnc(-n3c(NCc4ccc(Cl)cc4)nc4ccccc43)n2)cc(OC)c1OC
3. COc1cc(Nc2ncnc(-c3c(O)[nH]c4ccc(Cl)cc34)n2)cc(OC)c1OC
4. OCc1cccc(Nc2ncnc(Nc3cc(-c4ccco4)n[nH]3)n2)c1
5. COc1cc(Nc2ncnc(Nc3cc(-c4cccs4)n[nH]3)n2)cc(OC)c1OC
6. CCOC(=O)Cc1cn(-c2ncnc(Nc3cc(OC)c(OC)c(OC)c3)n2)c2ccccc12
7. COc1cc(Nc2ncnc(-n3c(N[C@@H](C)c4ccccc4)nc4ccccc43)n2)cc(OC)c1OC

(A)
1: > 12.4 µM; 2: > 8.69 µM; 3: > 10.5 µM; 4: > 12.9 µM; 5: 0.94 to 5.64 µM; 6: > 9.71 µM; 7: > 9.04 µM

====

I'd be grateful if you could share measured pIC50 for these entries.
Target: Zap-70 (Homo sapiens, UniProt P43403)
Construct: Kinases are expressed as either kinase domains or full length constructs; made in house
Experiment: Kinase inhibition assay (33P transfer), Zap-70
Format: biochemical
Settings: Table 3; read-out: Zap-1
From the text: The inhibitor compounds described herein are screened in the following manner. […] Kinases are expressed as either kinase domains or full length constructs fused to glutathione S-transferase (GST) or polyHistidine tagged fusion proteins in either E. colior Baculovirus-High Five expression systems. […]
pIC50: −log10 of the molar value.

Sample answers from the record:
COMPOUND	MEASURED_ON	pIC50
COc1cc(Nc2ncnc(-c3ccnc(Cl)c3)n2)cc(OC)c1OC [Compound 331]	Zap-70 (Homo sapiens, UniProt P43403)	< 4.92
COc1cc(Nc2ncnc(-c3cccnc3)n2)cc(OC)c1OC [Compound 219]	Zap-70 (Homo sapiens, UniProt P43403)	< 4.88
COc1cc(C)c(Nc2ncnc(Nc3cc(-c4ccco4)n[nH]3)n2)cc1OC [Compound 338]	Zap-70 (Homo sapiens, UniProt P43403)	< 4.94
CC(C)(C)OC(=O)NCCCNc1ncnc(-c2ccccc2)n1 [Compound 17]	Zap-70 (Homo sapiens, UniProt P43403)	< 4.86
COc1cc(Nc2ncnc(N3c4ccc(F)cc4CCC3C)n2)cc(OC)c1OC (stereo not drawn) [Compound 298]	Zap-70 (Homo sapiens, UniProt P43403)	4.98 to 5.08
COc1cc(Nc2ncnc(Nc3nc(C)cs3)n2)cc(OC)c1OC [Compound 468]	Zap-70 (Homo sapiens, UniProt P43403)	< 4.92
COc1cc(Nc2ncnc(-c3cccs3)n2)cc(OC)c1OC [Compound 217]	Zap-70 (Homo sapiens, UniProt P43403)	< 4.88
COc1cc(Nc2ncnc(N3CCCC4CCCCC43)n2)cc(OC)c1OC (stereo not drawn) [Compound 314]	Zap-70 (Homo sapiens, UniProt P43403)	< 4.95

Please state, for each entry, its recorded pIC50.
1. COc1ccc(Nc2ncnc(Nc3ccc(F)c(Cl)c3)n2)cc1OC [Compound 113]
2. Nc1ncnc(Nc2nc(-c3ccc(Cl)cc3)cs2)n1 [Compound 1016]
3. COc1cc(Nc2ncnc(-n3cc(CC(N)=O)c4ccccc43)n2)cc(OC)c1OC [Compound 353]
4. COC(=O)c1ccc(Nc2ncnc(Nc3cc(-c4ccco4)n[nH]3)n2)cc1 [Compound 366]

(A)
1: < 4.92; 2: < 4.83; 3: < 4.98; 4: 5.03 to 5.20

Values from patent US7074789B2
